system: PBMC cells obtained from mite allergic patients and non-allergics; assay: Ex vivo stimulation of PBMC: cytokine production (IFN-gamma, IL-9, IL-10, IL-17, IL-31); type: cell-based, human; settings: non-allergic individuals; IL-10
ENDPOINT: % non-allergic individuals with cytokine production in ex-vivo T cell assay IL-10 (%)

1. A020: house dust mite protein; SEQ ID NO: 15 (Der f), 16 (Der p); Blo t SEQ ID NO: 316 printed as A0019 (protein) MSKPIFYYHPFSGPCRTVSTVAKILNVDMEMKKLDLLTKEHLNPEFLKVNPFHKVPTFVDSDGFVVDESRVIAMYLVESRKPDSFLYPKNDLKKRIQIDRWLHYDINLSTTISAPMFCVFRGHQVQDYQVEQGKETLKTLDGVMQSFEGKFLTGADQFTLADIAMYFSLNTMEVYPKYFKFDDYPNLKSWYHRVAEALKQYDTEGTIPKAIETMKQFIQQRAAEAEKH: 0
2. A001: house dust mite protein; SEQ ID NO: 13 (Der f), 14 (Der p); recombinant test protein (protein) KKSPDCDIERPIRECLKDGLLRYSSGQKINQFPDTIQDLNRACEELKKSETCARTFIDTCTESSYEKRSLDSLLDGIQRVMKRLCRSQTKKEKLLENVGCANSVVQDTKQCLKNYRMLVFAANKLDNKNKIMRILCCKSRKVAPCIGEAMKAKGTAVCSAKNIDYFKDVHQNIKQEMTAVVCSDFERDQCENVDVPNISESEYKDQNIFNPLRDLYKKVILG: 100
3. A017: house dust mite protein; SEQ ID NO: 21 (Der f), 25 (Der p), 313 (Blo t) (protein) MSSSSGKKYDFSGKVALVTGSSSGIGAAIALQFAQYGAQVTITGRDAAALESVAKRIEAESGHQPLQIVGNLLDQSLPAKLIDGTISKYGRLDFLVNNAGFSTQHRDIHDEKLMEAFDQVYGLNVRAVVQLSQLAATHLEKSKGNIINISSNLSMMPVHIIYSSSKAALDMITKTMAMEFGKKGVRVNSINPGPVATQFMRSLGMPVTFLKENEEFVKELTLLKFVAQPVEIANLASFLASDDARNMTGSIVVNDTGSLLAPRVDFKKLDEIKKK: 33
4. Derp2: major house dust mite allergen, group 2, Dermatophagoides pteronyssinus; control (protein, UniProt P49278 18-146, looked up) Mite group 2 allergen Der p 2: DQVDVKDCANHEIKKVLVPGCHGSEPCIIHRGKPFQLEAVFEANQNTKTAKIEIKASIDGLEVDVPGIDPNACHYMKCPLVKGQQYDIKYTWNVPKIAPKSENVVVTVKVMGDDGVLACAIATHAKIRD: 17
5. A019: house dust mite protein; SEQ ID NO: 1 (Der f), 4 (Der p), 315 (Blo t) (protein) QVYCNGAAIVSAARSQIGVPYSWGGGGIHGKSRGIGEGANTVGFDCSGLAQYSVYQGTHKVLARVASGQYSDPKCHHVAYGSHQPGDLVFFGNPIHHVGIVSAHGRMINAPHTGTNVREENIWSDHIANVARCW: 100
